Test: Tmax in Sprague Dawley rat at 2 mg/kg, iv measured after 24 hrs
Assay type: ADME, organism-based
Conditions: in vivo
property-measured: Tmax (min)
Entry rule: numbers only, all in min.

INPUT: Please look at this molecule and report its Tmax: CC(C)Oc1cc(F)ccc1Nc1ncnc2ccc(-c3ccc(C(=O)N4CCNCC4)cc3)nc12
OUTPUT: 4.98

###

Target: MAP kinase-interacting serine/threonine-protein kinase 1 (Homo sapiens)
Sequence (Q9BUB5 whole entry, looked up): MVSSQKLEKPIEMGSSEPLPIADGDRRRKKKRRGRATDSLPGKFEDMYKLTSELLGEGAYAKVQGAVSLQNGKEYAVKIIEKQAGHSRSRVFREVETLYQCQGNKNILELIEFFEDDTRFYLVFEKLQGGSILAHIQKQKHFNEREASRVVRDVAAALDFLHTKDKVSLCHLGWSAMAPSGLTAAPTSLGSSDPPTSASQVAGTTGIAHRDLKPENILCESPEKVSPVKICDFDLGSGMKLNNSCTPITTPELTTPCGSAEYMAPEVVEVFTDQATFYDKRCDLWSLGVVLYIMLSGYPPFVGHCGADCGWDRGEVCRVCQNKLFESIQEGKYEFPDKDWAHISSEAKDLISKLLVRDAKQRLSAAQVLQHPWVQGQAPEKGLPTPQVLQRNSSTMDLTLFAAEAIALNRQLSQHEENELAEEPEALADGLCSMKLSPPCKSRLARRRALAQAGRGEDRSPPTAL
Assay: Inhibition of MKN1 (unknown origin) at 1 uM in presence of ATP by HTRF assay
The reader will find reported inhibition values listed item by item below.
Entry rule: numbers only, all in %.

Here's what some known entries look like.
# smiles-notation, scale-unit, inhibition
measured = [
    ("O=C(c1ccc(-c2ccc3ncnc(Nc4ccc(F)cc4)c3n2)cc1)N1CCNCC1", "%", 83),
    ("N#Cc1ccc(Nc2ncnc3ccc(-c4ccc(C(=O)N5CCNCC5)cc4)nc23)cc1", "%", 88),
    ("O=C(c1ccc(-c2ccc3ncnc(Nc4cccc(F)c4)c3n2)cc1)N1CCNCC1", "%", 70),
    ("c1ccc(Nc2ncnc3ccc(-c4ccccc4)nc23)cc1", "%", 0),
    ("CNC(=O)c1ccc(-c2ccc3ncnc(Nc4ccccc4)c3n2)cc1", "%", 37),
    ("Nc1ncnc2[nH]nc(Nc3ccc(F)cc3)c12", "%", 78),
    ("Cc1ccc(Nc2ncnc3ccc(-c4ccc(C(=O)N5CCNCC5)cc4)nc23)cc1", "%", 12),
    ("O=C(c1ccc(-c2ccc3ncnc(Nc4ccccc4)c3n2)cc1)N1CCNCC1", "%", 71),
]

INPUT: Please look at this compound and report its inhibition: O=C(c1cccc(-c2ccc3ncnc(Nc4ccc(F)cc4)c3n2)c1)N1CCNCC1
OUTPUT: 70

INPUT: Please look at this compound and report its inhibition: O=C(c1ccc(-c2ccc3ncnc(Nc4ccc(O)cc4)c3n2)cc1)N1CCNCC1
OUTPUT: 86

###

Test: Tmax in Sprague Dawley rat at 10 mg/kg, po measured after 24 hrs
Type: ADME, organism-based
Conditions: in vivo
property-measured: Tmax (h)
Entry rule: numbers only, all in h.

INPUT: Please look at this compound and report its Tmax: CC(C)Oc1cc(F)ccc1Nc1ncnc2ccc(-c3ccc(C(=O)N4CCNCC4)cc3)nc12
OUTPUT: 8

###

Assay: Metabolic stability in rat liver microsomes assessed as half life preincubated for 10 mins followed by NADPH addition and further incubated upto 60 mins by LC-MS/MS analysis
Type: ADME, Microsome
Settings: time <=70 min
property-measured: half-life (min)
Entry rule: numbers only, all in min.

# smiles-notation, property-measured, scale-unit, experimental-result
measured = [
    ("CC(C)Oc1cc(F)ccc1Nc1ncnc2ccc(-c3ccc(C(=O)N4CCNCC4)cc3)nc12", "half-life", "min", 36.1),
]

Proceeding to the next compound to report its half-life.
INPUT: Please look at this compound and report its half-life: Cc1ncc2n1-c1ccc(Cl)cc1C(c1ccccc1F)=NC2
OUTPUT: 2.64

###

Experiment: Drug concentration in Sprague Dawley rat at 2 mg/kg, iv measured after 24 hrs
Format: ADME, organism-based
Settings: in vivo, read-out: Ct
property-measured: concentration at 24 h

INPUT: Please look at this compound and report its concentration at 24 h: CC(C)Oc1cc(F)ccc1Nc1ncnc2ccc(-c3ccc(C(=O)N4CCNCC4)cc3)nc12
OUTPUT: 765 ng/mL

The reported numbers originate from ChEMBL document CHEMBL4825757.
